Biological target: T1, IRF4 DBD C99A (Homo sapiens, UniProt Q15306 20-132, C99A)
T1 sequence: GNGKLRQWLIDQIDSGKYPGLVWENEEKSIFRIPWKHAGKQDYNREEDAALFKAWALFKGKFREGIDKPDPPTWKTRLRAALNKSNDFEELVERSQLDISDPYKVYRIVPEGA
Assay: SPR two-state kinetic; FP: PBS + 0.05% Tween20, 5 nM DNA, 1 h, room temperature; SPR: Biacore S200, SA chip, protein 0.1-4500 nM, running buffer not given in material; errors are SD
Details: protein: recombinant; tags: N-terminal His8-linker-His8-TEV, cleaved; label: 3' biotin; hairpin, TTTT loop
MEASURED_PARAMETER: pKd
The read-out pKd is expressed as -log10 of concentration in moles per litre.

Reported pKd ( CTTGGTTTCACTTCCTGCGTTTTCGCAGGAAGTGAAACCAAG (structured_DNA) [IRE hairpin (biotin)] ) = 7.21
